species: Rattus norvegicus; test: Open TG-GATES - Regimen: Daily Repeat; type: toxicity, organism-based, Sprague-Dawley; design: regimen Daily Repeat, gender Male, age 6 weeks; conditions: in vivo, po, 1000 mg/kg, […], tissue Plasma, route gavage, dose level High, time 28 day
measured_attribute: AST (IU/L)

| molecule | observed |
| --- | --- |
| O=C(O)c1cccnc1 | 80.8 |
| CCN1CCCC1CNC(=O)c1cc(S(N)(=O)=O)ccc1OC (centres undefined) [SULPIRIDE] | 70.4 |
| CC(C)(S)[C@@H](N)C(=O)O | 43.6 |
| O=C(N[C@H](CO)[C@H](O)c1ccc([N+](=O)[O-])cc1)C(Cl)Cl | 72.8 |
